Give measured inhibition at 1 µM for each item. Keep answers brief.
target: MAGL (Mus musculus, UniProt O35678); assay: In vitro competitive activity-based protein profiling (Table 2, % inhibition at 1 μM); assay type: biochemical; settings: read-out: % Inhibition at 1 μM MAGL
Sequence (O35678 whole entry): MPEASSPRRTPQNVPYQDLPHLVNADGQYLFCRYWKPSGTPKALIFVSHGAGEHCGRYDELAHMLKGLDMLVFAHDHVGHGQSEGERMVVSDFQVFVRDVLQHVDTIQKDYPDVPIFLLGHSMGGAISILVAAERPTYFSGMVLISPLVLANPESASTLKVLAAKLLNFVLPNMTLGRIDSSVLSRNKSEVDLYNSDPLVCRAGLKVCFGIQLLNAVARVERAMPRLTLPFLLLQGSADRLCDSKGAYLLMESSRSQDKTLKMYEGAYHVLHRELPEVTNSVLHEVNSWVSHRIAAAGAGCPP

| compound | inhibition at 1 µM |
| --- | --- |
| Cc1c(CN2CC3CN(C(=O)OC(C(F)(F)F)C(F)(F)F)CC3C2)cccc1N1CCCCC1 (stereo not shown) [Example 29] | > 75% |
| Cc1cc(CN2CC3CN(C(=O)OC(C(F)(F)F)C(F)(F)F)CC3C2)n(C(C)C)n1 (stereo not shown) [Example 59] | > 75% |
| O=C(OC(C(F)(F)F)C(F)(F)F)N1CC2CN(Cc3ccc(N4CCCCC4)cc3C(F)F)CC2C1 (stereo not shown) [Example 201] | > 75% |
| CC(C)c1ccc(CN2CC3CN(C(=O)OC(C(F)(F)F)C(F)(F)F)CC3C2)c(N2CCOCC2)c1 (stereo not shown) [Example 22] | > 75% |
| Cc1ccc(CN2CC3CN(C(=O)OC(C(F)(F)F)C(F)(F)F)CC3C2)cc1-c1ccccc1 (stereo not shown) [Example 206] | > 75% |

Please supply inhibition at 1 µM for each of the following items, keeping them in order.
1. Cc1c(CN2CC3CN(C(=O)OC(C(F)(F)F)C(F)(F)F)CC3C2)cccc1N1CCC(NS(C)(=O)=O)CC1 (stereo not shown) [Example 149]
2. O=C(ON1C(=O)CCC1=O)N1CC2CN(Cc3ccc(F)cc3N3CCCC3)CC2C1 (stereo not shown) [Example 90]
3. O=C(OC(C(F)(F)F)C(F)(F)F)N1CC2CN(Cc3ccc(Cl)cc3N3CCC3)CC2C1 (stereo not shown) [Example 39]
4. O=C(OC(C(F)(F)F)C(F)(F)F)N1CC2CN(Cc3ccc(Cl)cc3N3CC4COCC4C3)CC2C1 (stereo not shown) [Example 208]

> 75%
25 to 75%
> 75%
> 75%

// batch mode: one inhibition at 1 µM value per listed entry
1. O=C(ON1C(=O)CCC1=O)N1CC2CN(Cc3ccc(Cl)cc3N3CCOC4CCCC43)CC2C1 (stereo not shown) [Example 82]
2. CC(C)n1cc(CN2CC3CN(C(=O)OC(C(F)(F)F)C(F)(F)F)CC3C2)c(-c2cccc(Cl)c2)n1 (stereo not shown) [Example 174]
3. Cn1cc(CN2CC3CN(C(=O)OC(C(F)(F)F)C(F)(F)F)CC3C2)c(-c2ccccc2)n1 (stereo not shown) [Example 50]
4. O=C(ON1C(=O)CCC1=O)N1CC2CN(Cc3ccc(C(=O)N4CCCC4)cc3Cl)CC2C1 (stereo not shown) [Example 164]
5. CC(=O)N1CCC(n2nc(C)cc2CN2CC3CN(C(=O)ON4C(=O)CCC4=O)CC3C2)CC1 (stereo not shown) [Example 122]
6. CCn1ncc(CN2CC3CN(C(=O)OC(C(F)(F)F)C(F)(F)F)CC3C2)c1C(=O)NCCc1cccc(Cl)c1 (stereo not shown) [Example 180]
7. O=C(OC(C(F)(F)F)C(F)(F)F)N1CC2CN(Cc3ccc(N4CCOCC4)cc3Cl)CC2C1 (stereo not shown) [Example 2]

25 to 75%
> 75%
> 75%
25 to 75%
< 25%
> 75%
> 75%
